Biological target: T1, 4H454-AA
T1 chain: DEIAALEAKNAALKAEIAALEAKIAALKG
Experiment: two-hybrid library CCmax;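 also: natural log of median RNA to DNA barcode read ratio; higher means stronger binding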
Settings: mean of both orientations
METRIC_NAME: interaction score
Answers are plain numbers.

Consider the reported interaction score for these binders:
Which interaction score value belongs to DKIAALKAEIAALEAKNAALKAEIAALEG [4H2617-AA] ?
2.09

Query (binder): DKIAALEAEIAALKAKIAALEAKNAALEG [4H2151-AA] ; field requested: interaction score
-1.11

I am curious: what interaction score value has been reported for DKIAALKAKIAALKAKNAALKAKNAALKG [4H2944-AA] ?
-1.8

Form field: reported interaction score of DEIAALEAKIAALKAENAALEAKIAALKG [4H342-AA]
2.21

The record that follows has no interaction score shown yet.
What value of measured interaction score is listed for DKNAALKAEIAALKAEIAALEAKNAALEG [4H3655-AA] ?
-0.827
